Measured TGI, listed per entry for reference.
- System: MDA-N
- assay.overview: NCI tumour cell line growth inhibition, 48 h

Example cases with answers are listed next.
1) CC(C)CNC(=O)Cn1c2c(c3ccccc31)CCCC2 : > 100 µM
2) CSCC[C@H]1C(=O)N=C(N)N1C(=O)OCc1ccccc1 : > 100 µM
3) CCOC(CCCN1CCC2(CC1)C(=O)N(C)CN2c1ccccc1)(OCC)c1ccc(F)cc1 : 24.5 µM
4) O=C1C(=O)N(C2CCCCC2)C(=S)N1C1CCCCC1 : > 100 µM
5) CC(C)N1CSC(=S)N(Cc2ccccc2)C1 : 7.44 µM

// recorded TGI for CSc1c(C(=O)Nc2ccc(Cl)cc2)c(N)[nH]c(=O)c1C#N : > 70 µM

----------
- System: CAKI-1 renal
- assay.overview: NCI tumour cell line growth inhibition, 48 h
Measured TGI, listed per entry for reference.

1) CN1C(=O)C(O)CC1c1cccc(F)c1 (stereo not given) : > 100 µM

// recorded TGI for Oc1cc(Cl)ccc1Oc1ccc(Cl)cc1Cl : 17.8 µM

// recorded TGI for COc1ccc(-c2ccc(/C=N/n3c(COc4ccc(Cl)cc4)n[nH]c3=S)o2)c([N+](=O)[O-])c1 : 22.2 µM

// recorded TGI for Nc1ccc(S(=O)(=O)c2ccc(NC(=O)c3cccnc3)cc2)cc1 : > 100 µM

// recorded TGI for CCO[C@@H]1C2C=CC(C2)[C@H]1[N+](=O)[O-] (stereo not given in full) : > 100 µM

// recorded TGI for Cc1cn2c(/C=N/N/C(N)=N\N)c(-c3ccc(Cl)c([N+](=O)[O-])c3)nc2s1 : 17.6 µM

// recorded TGI for O=C(NN1C(=O)CSC1c1ccc(Cl)cc1)c1[nH]c2ccc(F)cc2c1-c1ccccc1 (stereo not given) : 17.2 µM

// recorded TGI for COc1cc(/C=C/C2=NN(c3cccc(S(=O)(=O)O)c3)C3(C2)C(Cl)C(=O)N3c2nc3ccccc3s2)ccc1O (stereo not given) : 33 µM

// recorded TGI for O=C1CC(CC(OCc2ccccc2)C(COCc2ccccc2)OCc2ccccc2)CC(=O)N1 (stereo not given) : 76.3 µM

// recorded TGI for COc1ccc(COCC(Cn2ccnc2)OCc2ccc(C(=O)O)cc2)cc1 (stereo not given) : > 100 µM

----------
Measured TGI, listed per entry for reference.
- System: SNB-75 CNS
- assay.overview: NCI tumour cell line growth inhibition, 48 h

1) O=C1CCC2(c3ccccc3)Nc3cc(Cl)ccc3N12 (stereo unspecified) : 64.9 µM
2) CCCCCCCC(=O)N/N=C/c1ccc(Sc2nccn2C)c([N+](=O)[O-])c1 : 39 µM
3) CN(C)Cc1cc(N=Nc2ccccc2Cl)cc(CN(C)C)c1O : > 100 µM
4) CN(C)C(=C1c2cc([N+](=O)[O-])ccc2-c2ccc([N+](=O)[O-])cc21)N(C)C : > 100 µM
5) Cc1cccc(C)c1NC(=O)CCCC(=O)C1CC(=O)CCC1=O (stereo unspecified) : > 100 µM
6) C=C(N=[N+]=[N-])c1cn(C2CC(O)C(CO)O2)c(=O)[nH]c1=O (stereo unspecified) : > 100 µM
7) O=C(CC(C(=O)c1ccsc1)c1ccccc1)c1cccs1 (stereo unspecified) : > 100 µM
8) O=C1C(N=Nc2ccc(-c3nc4ccccc4o3)cc2)NC(=S)N1c1ccccc1 (stereo unspecified) : > 100 µM

// recorded TGI for C[C@H](CSC(=O)c1ccccc1)C(=O)N1c2ccccc2C[C@H]1C(=O)O : > 100 µM

// recorded TGI for CC(C)=CC(=O)CC(=O)C(=O)Nc1ccc(Cl)c(Cl)c1 : > 100 µM

// recorded TGI for O=c1[nH]cc(OCC(F)(F)F)c(=O)[nH]1 : > 100 µM

----------
- Test system: UACC-257 melanoma
- assay.overview: NCI tumour cell line growth inhibition, 48 h
recorded.metric: TGI

Example cases with answers are listed next.
1) CN(C)c1ccc(/C=C/c2cc[n+](C)c3ccccc23)cc1 : 8.57 µM
2) COc1ccc(COCC(Cn2ccnc2)OCc2ccc(C(=O)O)cc2)cc1 (stereo not drawn) : > 100 µM
3) O=c1[nH]cnc2c(C3OC(CO)C(O)C3O)scc12 (stereo not drawn) : > 100 µM
4) CC1=CC(=O)C(C(C)=Nc2ccccc2Cl)C(=O)O1 (stereo not drawn) : > 100 µM
5) COc1ccc(C2NC3=C(CCCC3)C3(C#N)C(=O)N=C(N)C23C#N)cc1 (stereo not drawn) : > 100 µM
6) FC(F)(F)c1ccc2nc(Nc3ccc(Cl)c(Cl)c3)c(-c3ccccc3)nc2c1 : > 100 µM
7) OC(c1ccccc1)(c1ccccc1)c1cccnc1 : > 100 µM
8) [O-]c1on[n+]2c1c(Nc1ccc(Cl)cc1)nc1ccccc12 : > 100 µM

// recorded TGI for N#Cc1ccc(OCc2ccc3nc(-c4ccccc4)c(Cl)nc3c2)cc1 : > 100 µM

// recorded TGI for O=C(Nc1ccc2c(c1)oc(=O)c1ccccc12)C(Cl)Cl : > 100 µM

// recorded TGI for c1ccc2c(c1)CCN2CCc1c[nH]c2ccccc12 : > 10 µM

// recorded TGI for Cc1c(C)c2ccc(OC/C=C3\CCC(=O)O3)cc2oc1=O : 31.3 µM

// recorded TGI for CCCCCCCCCCCCC(=O)[O-].CCCCCCCCCCCCC(=O)[O-].CCCCCCCCCCCCC(=O)[O-].CCCCCCCCCCCCC(=O)[O-].[Mo+2].[Mo+2] : 96.1 µM

----------
Measured TGI, listed per entry for reference.
- Test system: HT29 colon
- assay.overview: NCI tumour cell line growth inhibition, 48 h

1) Cc1cccc(C(C)(C)C)c1NC(=O)C(=O)C(c1cnc2ccccc2n1)[N+](=O)[O-] (configuration not stated) : > 100 µM
2) COc1ccc(-c2c(C#N)c(S)n(C3OC(CO)C(O)C(O)C3O)c(=O)c2C#N)cc1 (configuration not stated) : > 100 µM
3) Fc1ccc(Nc2nccc(-c3c(-c4ccc(C(F)(F)F)cc4)nn4ncccc34)n2)cc1F : > 25 µM
4) C/C1=C\CC[C@@](C)(O)[C@@H]2CC3[C@@H](OC(=O)C34CC4)[C@@H](O2)[C@H](C)CCC1 (some centres not stated) : > 100 µM
5) Clc1ncnc2c1nc(C#Cc1ccccc1)n2Cc1ccccc1 : 72.2 µM

Form field, TGI with HT29 colon, item Cc1cc(C2(c3cc(C)c(O)c(C(=O)O)c3)OS(=O)(=O)c3ccccc32)cc(C(=O)O)c1O : > 100 µM

Form field, TGI with HT29 colon, item Cc1cc(N2CCCC2)nc(N(CCCNc2ccnc3cc(Cl)ccc23)Cc2ccc3c(c2)OCO3)n1 : 2.83 µM

Form field, TGI with HT29 colon, item CCOc1ccc(NC(=O)CC2SC(N)=NC2=O)cc1 (configuration not stated) : > 100 µM

Form field, TGI with HT29 colon, item COC(=O)c1cc(-c2c[nH]cc2C(=O)OCc2ccccc2)cn1S(=O)(=O)c1ccc(C)cc1 : > 100 µM

Form field, TGI with HT29 colon, item O=c1oc2ccc(Cl)cc2c(=O)n1-c1ccc(I)cc1F : 22.6 µM

Form field, TGI with HT29 colon, item Cc1nnc2sc(-c3ccc(-c4ccccc4Cl)o3)nn12 : > 100 µM

----------
- System: RPMI-8226 leukemia
- assay.overview: NCI tumour cell line growth inhibition, 48 h
Measured TGI, listed per entry for reference.
The reply should contain only the number, in µM.

1) Nc1nc(Nc2cccc(F)c2)nc2ccccc12 : 71.1

// recorded TGI for CC(CCc1ccc2c(c1)c(=N)c1ccc(N)cc1n2O)CC(C)(C)C (configuration not stated) : 4.64

// recorded TGI for CC[CH2][Pb]([CH2]CC)([CH2]CC)[NH]S(=O)(=O)c1ccc(C)cc1 : 0.131

// recorded TGI for COc1ccc2c(c1)C(=O)c1c-2n(CCCN2CCOCC2)c(=O)c2ccccc12 : 5.59

// recorded TGI for Cn1cc(-c2ccc(CNc3cc(-c4cnc5cc(OCCCN6CCCC6)ccn45)ncn3)cc2)cn1 : 5.55

// recorded TGI for O=C1CCC2(c3ccccc3)Nc3cc(Cl)ccc3N12 (configuration not stated) : 58.6

// recorded TGI for Clc1ccc(CN2COc3c(cc(Cl)c4cccnc34)C2)cc1 : 3.42

// recorded TGI for Cc1c2ccncc2c(C)c2c1[nH]c1ccc(OC(C)(C)C)cc12 : 5.49

// recorded TGI for O=C(Nc1ccc2c(c1)oc(=O)c1ccccc12)C(Cl)Cl : 32.5

----------
Measured GI50, listed per entry for reference.
- Tested on: 786-0 renal
- assay.overview: NCI tumour cell line growth inhibition, 48 h

// recorded GI50 for Fc1ccc(Nc2nccc(-c3c(-c4ccc(C(F)(F)F)cc4)nn4ncccc34)n2)cc1F : > 25 µM

// recorded GI50 for O=c1[nH]cnc2c(C3OC(CO)C(O)C3O)scc12 (stereo unspecified) : > 100 µM
